Items are presented alongside their recorded AC35.
Tested on: P. falciparum HB3 in RBCs, SYBR Green DNA fluorescence
Protocol: growth inhibition of P. falciparum HB3, dose response, HB3 strain, red blood cells, SYBR Green, cherry-picked (AID 652041);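 note: parasites exposed to compound for 72 hours before the DNA read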

Below, each entry is followed by its recorded AC35 result.
COc1ccc(O)c(C(=O)CC(=O)c2ccccc2C)c1 ... 13.9 µM
O=C1c2cccc(Cl)c2C(=O)c2c1cccc2N1CCCC1 ... 20.9 µM

Next, consider the following compound.
Assign AC35 to the following record: Cc1cccc(NC(=S)NC(C)CCc2ccccc2)c1 (stereo not drawn) 12.7 µM

====

Test system: P. falciparum HB3 in RBCs, SYBR Green DNA fluorescence
Protocol: growth inhibition of P. falciparum HB3, dose response, HB3 strain, red blood cells, SYBR Green, cherry-picked (AID 652041);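 note: parasites exposed to compound for 72 hours before the DNA read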
Observable: AC35

See these solved cases before continuing.
CCCC1CCC(c2ccc(/C(N)=N/O)cc2)CC1 (stereo not drawn) ... 24 µM
Cc1ccc2c(C)c3ccc4ccccc4c3c[n+]2c1 ... 0.0701 µM
c1ccc(C(=NNc2nc3ccccc3s2)c2ccccn2)cc1 ... 2.22 µM
C[C@@]12CCC3[C@@](CCC4[C@@]3(C)CCC[C@@]4(C)C(=O)NCc3ccccc3)(CC1=O)C2 (stereo partly drawn) ... 21.7 µM
COc1cnc(-c2ccccn2)nc1Sc1ccc(C)cc1 ... 3.64 µM

Respond only with AC35 recorded for `CCCCNC(=S)N/N=C1\CCCCc2ccccc21` 16.8 µM

Tell me AC35 reported for `C=CCn1c(-c2cc(-c3ccc(C)cc3)nc3ccccc23)n[nH]c1=S` 14.1 µM

Specify measured AC35 for `O=c1c2ccccc2c(-c2ccc(O)cc2)nn1-c1cccc(C(F)(F)F)c1` . 3.52 µM

Indicate its recorded AC35; the compound in question is O=S1OC(c2ccccc2)c2cc(Cl)ccc21 (stereo not drawn) 16.8 µM

Name the recorded AC35 of the item `COc1ccccc1C1CCN(C(=O)c2ccc(Cl)cc2)CC1` in your answer. 28.6 µM

Read off the recorded AC35 for `C=CCN(CC=C)C(=S)NC(=O)c1ccc(C)c(Br)c1` 9.72 µM

Provide only the value of recorded AC35 for Oc1c(C(Nc2cccc(C(F)(F)F)c2)c2ccncc2)ccc2cccnc12 (stereo not drawn) 1.39 µM

Supply measured AC35 of `Cc1c(Cc2ccccc2)c(NCCN(C)C)n2c(nc3ccccc32)c1C#N` in your reply. 6.66 µM

Look up and state reported AC35 for `CCCn1c(=O)c(C(=O)NCc2ccc(OC)c(OC)c2)c(O)c2ccccc21` 21.8 µM

Complete the entry with AC35 for CC(=O)NC(c1ccc(C)cc1)c1cc([N+](=O)[O-])c2cccnc2c1O (stereo not drawn) 11.2 µM

Tell me AC35 reported for `Oc1ccc(Br)cc1/C=N/Nc1ccccn1` 1.61 µM

For the compound `O=C1OCC(CO)(CO)N=C1NNc1ccc(Cl)c(Cl)c1` , give its measured AC35 value. 19.7 µM

Please look at this compound and report its AC35: CC(=O)NC(c1cccc([N+](=O)[O-])c1)c1ccc2cccnc2c1O (stereo not drawn) 1.77 µM

Please report the measured AC35 for `O=C1c2cc(F)ccc2-n2c1nc1ccccc1c2=O` 0.0251 µM

Name the recorded AC35 of the item `CCc1ccc(S(=O)(=O)N(C(=O)c2ccncc2)c2ccc(OC(=O)c3ccncc3)cc2)cc1` in your answer. 41.7 µM

// fetch AC35 given entry `C=CCNC(=S)N1CCC(Cc2ccccc2)CC1` 28 µM

Give me measured AC35, please, for this compound: `CCN(CC)C(=O)CSc1ncnc2sc(-c3ccccc3)cc12` 36.6 µM

In one line, give reported AC35 of the entry CCC(=O)NC(c1ccco1)c1cc(Cl)c2cccnc2c1O (stereo not drawn) . 0.185 µM
